Reference for the values: the supplement of paper PMC8612539

# Tested on: Escherichia coli
# PROTOCOL_TEXT: minimum inhibitory concentration (MIC)
# EXPERIMENTAL_CONDITIONS: isolate (source animal id): 148

- COMPOUND: "CNC(C)C1CCC(N)C(OC2C(N)CC(N)C(OC3OCC(C)(O)C(NC)C3O)C2O)O1 (stereo unspecified) [Gentamicin]"
  minimum inhibitory concentration: "≤ 1 µg/mL"
- COMPOUND: "CO/N=C(\\C(=O)N[C@@H]1C(=O)N2C(C(=O)O)=C(CSC(=O)c3ccco3)CS[C@H]12)c1csc(N)n1 [Ceftiofur]"
  minimum inhibitory concentration: "≤ 0.25 µg/mL"
- COMPOUND: "CCN1CCN(c2cc3c(cc2F)c(=O)c(C(=O)O)cn3C2CC2)CC1 [Enrofloxacin]"
  minimum inhibitory concentration: "0.25 µg/mL"
- COMPOUND: "CCCN1C[C@H](C)[C@@H](O)[C@](C)(O)[C@@H](CC)OC(=O)[C@H](C)[C@@H](O[C@H]2C[C@@](C)(OC)[C@@H](O)[C@H](C)O2)[C@H](C)[C@@H](O[C@@H]2O[C@H](C)C[C@H](N(C)C)[C@H]2O)[C@](C)(O)C[C@H]1C [Gamithromycin]"
  minimum inhibitory concentration: "8 µg/mL"
- COMPOUND: "CS(=O)(=O)c1ccc([C@@H](O)[C@@H](CF)NC(=O)C(Cl)Cl)cc1 [Florfenicol]"
  minimum inhibitory concentration: "> 8 µg/mL"
- COMPOUND: "CC[C@H]1OC(=O)C[C@@H](O)[C@H](C)[C@@H](O[C@@H]2O[C@H](C)[C@@H](O)[C@H](N(C)C)[C@H]2O)[C@@H](CCN2C[C@H](C)C[C@H](C)C2)C[C@@H](C)C(=O)/C=C/C(C)=C/[C@@H]1CO[C@@H]1O[C@H](C)[C@@H](O)[C@@H](OC)[C@H]1OC [Tilmicosin]"
  minimum inhibitory concentration: "> 16 µg/mL"

---

Entries and their measured minimum inhibitory concentration follow.
# System: Escherichia coli
# PROTOCOL_TEXT: minimum inhibitory concentration (MIC)
# EXPERIMENTAL_CONDITIONS: isolate (source animal id): 188
READOUT_NAME: minimum inhibitory concentration (µg/mL)

- MOLECULE: "CN[C@@H]1[C@H](O)[C@H](NC)[C@H]2O[C@@]3(O)C(=O)C[C@@H](C)O[C@H]3O[C@@H]2[C@H]1O [Spectinomycin]"
  READOUT_NAME: "minimum inhibitory concentration"
  OPERATOR: "="
  RECORDED_NUMBER: 32
- MOLECULE: "CN1C[C@@H]2C[C@H]1CN2c1cc2c(cc1F)c(=O)c(C(=O)O)cn2C1CC1 [Danofloxacin]"
  READOUT_NAME: "minimum inhibitory concentration"
  OPERATOR: ">"
  RECORDED_NUMBER: 1
- MOLECULE: "COc1cc(NS(=O)(=O)c2ccc(N)cc2)nc(OC)n1 [sulfadimethoxine]"
  READOUT_NAME: "minimum inhibitory concentration"
  OPERATOR: ">"
  RECORDED_NUMBER: 256
- MOLECULE: "CC[C@H]1OC(=O)C[C@@H](O)[C@H](C)[C@@H](O[C@@H]2O[C@H](C)[C@@H](O)[C@H](N(C)C)[C@H]2O)[C@@H](CCN2C[C@H](C)C[C@H](C)C2)C[C@@H](C)C(=O)/C=C/C(C)=C/[C@@H]1CO[C@@H]1O[C@H](C)[C@@H](O)[C@@H](OC)[C@H]1OC [Tilmicosin]"
  READOUT_NAME: "minimum inhibitory concentration"
  OPERATOR: ">"
  RECORDED_NUMBER: 16
- MOLECULE: "CCCN1C[C@H](C)[C@@H](O)[C@](C)(O)[C@@H](CC)OC(=O)[C@H](C)[C@@H](O[C@H]2C[C@@](C)(OC)[C@@H](O)[C@H](C)O2)[C@H](C)[C@@H](O[C@@H]2O[C@H](C)C[C@H](N(C)C)[C@H]2O)[C@](C)(O)C[C@H]1C [Gamithromycin]"
  READOUT_NAME: "minimum inhibitory concentration"
  OPERATOR: "="
  RECORDED_NUMBER: 2
